Examples of compounds with documented DC50 follow.
target: Protein cereblon/Bromodomain-containing protein 4 (Homo sapiens, UniProt O60885+Q96SW2); assay: PROTAC activity at […]/BRD4 in human HEK293T cells assessed as degradation of BRD4 incubated for 24 hrs by HiBiT assay; type: cell-based
Sequence (Q96SW2 whole entry, looked up, other chains not shown): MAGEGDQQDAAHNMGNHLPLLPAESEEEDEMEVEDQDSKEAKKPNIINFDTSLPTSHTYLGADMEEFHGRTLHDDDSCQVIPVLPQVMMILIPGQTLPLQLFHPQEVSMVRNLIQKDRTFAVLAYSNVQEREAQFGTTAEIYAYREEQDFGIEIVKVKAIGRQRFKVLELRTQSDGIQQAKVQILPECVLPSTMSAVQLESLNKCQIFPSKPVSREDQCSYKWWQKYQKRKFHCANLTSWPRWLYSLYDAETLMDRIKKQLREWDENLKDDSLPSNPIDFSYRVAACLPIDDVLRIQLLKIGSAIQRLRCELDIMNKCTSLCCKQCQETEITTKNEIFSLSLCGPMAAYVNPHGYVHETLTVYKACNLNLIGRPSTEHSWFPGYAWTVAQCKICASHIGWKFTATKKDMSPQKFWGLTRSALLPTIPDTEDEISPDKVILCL

Completed entries (count: 7):
{"compound": "O=C1CCC(=O)N1O", "DC50": "> 50 µM"}
{"compound": "O=C(O)COc1cccc2c1C(=O)N(C1CCC(=O)NC1=O)C2=O (stereo not drawn)", "DC50": "> 50 µM"}
{"compound": "Cc1ccc(C(=O)N(C)[C@H]2C[C@H](NC(=O)C[C@@H]3N=C(c4ccc(Cl)cc4)c4c(sc(C)c4C)-n4c(C)nnc43)C2)cc1N1CCC(=O)NC1=O", "DC50": "> 20 µM"}
{"compound": "Cc1ccc(C(=O)ON2C(=O)CCC2=O)cc1N1CCC(=O)NC1=O", "DC50": "> 50 µM"}
{"compound": "O=C1CCC(N2C(=O)c3cccc(OCC(=O)ON4C(=O)CCC4=O)c3C2=O)C(=O)N1 (stereo not drawn)", "DC50": "> 50 µM"}
{"compound": "Cc1ccc(C(=O)N(C)CCN2CCN(C(=O)C[C@@H]3N=C(c4ccc(Cl)cc4)c4c(sc(C)c4C)-n4c(C)nnc43)CC2)cc1N1CCC(=O)NC1=O", "DC50": "0.088 µM"}
{"compound": "Cc1sc2c(c1C)C(c1ccc(Cl)cc1)=N[C@@H](CC(=O)O)c1nnc(C)n1-2", "DC50": "> 50 µM"}

Prompt: Answer briefly: DC50 recorded on Protein cereblon/Bromodomain-containing protein 4 (Homo sapiens, UniProt O60885+Q96SW2) for Cc1sc2c(c1C)C(c1ccc(Cl)cc1)=N[C@@H](CC(=O)N[C@H]1C[C@H](N(C)C(=O)COc3cccc4c3C(=O)N(C3CCC(=O)NC3=O)C4=O)C1)c1nnc(C)n1-2 (stereo partly drawn)
Completion: 0.11 µM

---

biological target: Bromodomain-containing protein 4 (Homo sapiens) (UniProt O60885); assay: Relative binding affinity to BRD4 (unknown origin)
property name: relative binding affinity (RBA)

Below: 3 compounds and their reported relative binding affinity (RBA).
{"compound": "Cc1sc2c(c1C)C(c1ccc(Cl)cc1)=N[C@@H](CC(=O)N1CCN(CCN(C)C(=O)COc3cccc4c3C(=O)N(C3CCC(=O)NC3=O)C4=O)CC1)c1nnc(C)n1-2 (stereo partly drawn)", "relative binding affinity (RBA)": 25}
{"compound": "Cc1ccc(C(=O)N2CCC(Oc3cnc(N4CCN(C(=O)C[C@@H]5N=C(c6ccc(Cl)cc6)c6c(sc(C)c6C)-n6c(C)nnc65)CC4)nc3)CC2)cc1N1CCC(=O)NC1=O", "relative binding affinity (RBA)": 0.9}
{"compound": "Cc1ccc(C(=O)N(C)[C@H]2C[C@H](NC(=O)C[C@@H]3N=C(c4ccc(Cl)cc4)c4c(sc(C)c4C)-n4c(C)nnc43)C2)cc1N1CCC(=O)NC1=O", "relative binding affinity (RBA)": 6.4}

P. Cc1ccc(C(=O)N(C)CCN2CCN(C(=O)C[C@@H]3N=C(c4ccc(Cl)cc4)c4c(sc(C)c4C)-n4c(C)nnc43)CC2)cc1N1CCC(=O)NC1=O
Q. Cc1sc2c(c1C)C(c1ccc(Cl)cc1)=N[C@@H](CC(=O)N[C@H]1C[C@H](N(C)C(=O)COc3cccc4c3C(=O)N(C3CCC(=O)NC3=O)C4=O)C1)c1nnc(C)n1-2 (stereo partly drawn)
R. Cc1ccc(C(=O)NCCOCCN(C)C(=O)C[C@@H]2N=C(c3ccc(Cl)cc3)c3c(sc(C)c3C)-n3c(C)nnc32)cc1N1CCC(=O)NC1=O
S. Cc1sc2c(c1C)C(c1ccc(Cl)cc1)=N[C@@H](CC(=O)N(C)CCOCCNC(=O)COc1cccc3c1C(=O)N(C1CCC(=O)NC1=O)C3=O)c1nnc(C)n1-2 (stereo partly drawn)
T. Cc1sc2c(c1C)C(c1ccc(Cl)cc1)=N[C@@H](CC(=O)N1CCN(c3ncc(OC4CCN(C(=O)COc5cccc6c5C(=O)N(C5CCC(=O)NC5=O)C6=O)CC4)cn3)CC1)c1nnc(C)n1-2 (stereo partly drawn)
Prompt: Output the entries ranked by relative binding affinity (RBA) from maximum down to minimum. Write out the labels following the order that was asked for.
Completion: Q, S, R, T, P
(Q: 25, S: 9.6, R: 5, T: 2.3, P: 0.9)

---

Measured IC50 accompanies every entry in the list below.
tested on: HEK293; assay: Cytotoxicity against human HEK293 cells assessed as inhibition of cell viability incubated for 30 mins in presence of CRBN-tracer by nanoBRET assay; type: functional, cell-based; conditions: Homo sapiens, HEK293, 0.5 h
The figure you give is taken to be in µM; do not add the unit.

{"compound": "Cc1sc2c(c1C)C(c1ccc(Cl)cc1)=N[C@@H](CC(=O)N(C)CCOCCNC(=O)COc1cccc3c1C(=O)N(C1CCC(=O)NC1=O)C3=O)c1nnc(C)n1-2 (stereo not given in full)", "endpoint result": 1.6}
{"compound": "Cc1ccc(C(=O)NCCOCCN(C)C(=O)C[C@@H]2N=C(c3ccc(Cl)cc3)c3c(sc(C)c3C)-n3c(C)nnc32)cc1N1CCC(=O)NC1=O", "endpoint result": 3.2}
{"compound": "Cc1sc2c(c1C)C(c1ccc(Cl)cc1)=N[C@@H](CC(=O)N[C@H]1C[C@H](N(C)C(=O)COc3cccc4c3C(=O)N(C3CCC(=O)NC3=O)C4=O)C1)c1nnc(C)n1-2 (stereo not given in full)", "endpoint result": 0.089}

Prompt: Answer with reported IC50 of Cc1ccc(C(=O)N2CCC(Oc3cnc(N4CCN(C(=O)C[C@@H]5N=C(c6ccc(Cl)cc6)c6c(sc(C)c6C)-n6c(C)nnc65)CC4)nc3)CC2)cc1N1CCC(=O)NC1=O
Completion: 0.1

Prompt: Retrieve IC50 measured for Cc1sc2c(c1C)C(c1ccc(Cl)cc1)=N[C@@H](CC(=O)N1CCN(CCN(C)C(=O)COc3cccc4c3C(=O)N(C3CCC(=O)NC3=O)C4=O)CC1)c1nnc(C)n1-2 (stereo not given in full) and print it.
Completion: 0.071

Prompt: For the compound Cc1ccc(C(=O)ON2C(=O)CCC2=O)cc1N1CCC(=O)NC1=O , give its reported IC50.
Completion: 22.2

Prompt: Fill in reported IC50 for this entry: O=C1CCC(N2C(=O)c3cccc(OCC(=O)ON4C(=O)CCC4=O)c3C2=O)C(=O)N1 (stereo not given)
Completion: 7.42

Prompt: Hello, please tell me recorded IC50 for this one: Cc1ccc(C(=O)N(C)[C@H]2C[C@H](NC(=O)C[C@@H]3N=C(c4ccc(Cl)cc4)c4c(sc(C)c4C)-n4c(C)nnc43)C2)cc1N1CCC(=O)NC1=O
Completion: 2.1

Prompt: Write down IC50 measured for item Cc1ccc(C(=O)N(C)CCN2CCN(C(=O)C[C@@H]3N=C(c4ccc(Cl)cc4)c4c(sc(C)c4C)-n4c(C)nnc43)CC2)cc1N1CCC(=O)NC1=O
Completion: 4.5

Prompt: // Input: Cc1sc2c(c1C)C(c1ccc(Cl)cc1)=N[C@@H](CC(=O)N1CCN(c3ncc(OC4CCN(C(=O)COc5cccc6c5C(=O)N(C5CCC(=O)NC5=O)C6=O)CC4)cn3)CC1)c1nnc(C)n1-2 (stereo not given in full) . Output its IC50 only.
Completion: 0.07

---

biological target: Protein cereblon/Bromodomain-containing protein 4 (Homo sapiens, UniProt O60885+Q96SW2); test: PROTAC activity at […]/BRD4 in human HEK293T cells assessed as degradation of BRD4 incubated for 24 hrs by HiBiT assay; assay type: cell-based
property name: DC50 (nM)

1. Cc1sc2c(c1C)C(c1ccc(Cl)cc1)=N[C@@H](CC(=O)N(C)CCOCCNC(=O)COc1cccc3c1C(=O)N(C1CCC(=O)NC1=O)C3=O)c1nnc(C)n1-2 (some centres undefined)
2. Cc1ccc(C(=O)N2CCC(Oc3cnc(N4CCN(C(=O)C[C@@H]5N=C(c6ccc(Cl)cc6)c6c(sc(C)c6C)-n6c(C)nnc65)CC4)nc3)CC2)cc1N1CCC(=O)NC1=O
3. Cc1sc2c(c1C)C(c1ccc(Cl)cc1)=N[C@@H](CC(=O)N1CCN(c3ncc(OC4CCN(C(=O)COc5cccc6c5C(=O)N(C5CCC(=O)NC5=O)C6=O)CC4)cn3)CC1)c1nnc(C)n1-2 (some centres undefined)
Prompt: Kindly order the items shown according to DC50, from the highest value down. Arrange the labels as the request states and list them.
Completion: 1, 2, 3
(1: 7100 nM, 2: 20 nM, 3: 6 nM)
